Data provenance is the nanobody polyreactivity screen of Harvey et al. (2022).

# PROCEDURE DETAILS: yeast display, Sf9 membrane polyspecificity reagent, FACS + sequencing; frameworks hold sequencing errors
PROPERTY NAME: polyreactivity (PSR sort gate)

Some solved entries appear below for comparison.
- SEQUENCE TEXT: "QVQLQESGGGLVQAGGSQRLSCAASGYIFYFQYMGWYRQAPGKEREFVAAISDGANTNYADSVKGRFTISRDNAKNTEYLQMNSLKPEDTAVYYCAVYADENYYYIYWGQGTQVTVRS"
  polyreactivity (PSR sort gate): "low polyreactivity"
- SEQUENCE TEXT: "QVQLVESGGGLVQAGGSLRLSCAASGSTFYNAMGWYIQAPGKERELVAGISRNGGSTRYADSVKGRFTISRDNAKNTVYLQSHSQKPEDTAVSYCAAGYYDYGWDYANDYWGQGTQVTVSS"
  polyreactivity (PSR sort gate): "low polyreactivity"
- SEQUENCE TEXT: "QVQLVESGGGLVQAGGSLRLSCAASGSTLYKYAMGWYRQAPGKERELVATITRTDSTNYADSVKGRFTISRDNAKNTVYLQMNSLKPEDTAVYYCNRGFDWWYRYRHYDYWGQGTQVTVSS"
  polyreactivity (PSR sort gate): "low polyreactivity"
- SEQUENCE TEXT: "QVQLVESGGGLVQAGGSLRLSCAASGFTFSVNAMGWYRQAPGKERELVAAISSRGGSTYYADSVKGRFTISRDNAKNTVYLQMNSLKPEDTAVYYCAKYPFYRSRHLGYWGQGTQVTVSS"
  polyreactivity (PSR sort gate): "high polyreactivity"
- SEQUENCE TEXT: "QVQLVESGGGLVQAGGSLRLSCAASGSIFYYTNTMGWYRQAPGKERELFAAISSSGGTTYADSVKGRFTISRDYSKNTVYLQMNSLKPEDSAVYYCALDCVLKTYVRGTYDYWGQGTQVTVSS"
  polyreactivity (PSR sort gate): "high polyreactivity"
- SEQUENCE TEXT: "HVQLVESAGGLVQAGGSLRLSCAASGRIFAVYAMGWYRQAPGKERELVAAISYIGGSTYYADSVKGRFTISRDNAKNTVYLQMNSLKPEDTAVYYCNKDIPKRQYVVYRTAYEYDYWGQGTQVSVSS"
  polyreactivity (PSR sort gate): "low polyreactivity"

Qu. Need polyreactivity (PSR sort gate) of `QVQLVESGGGLVQAGGSLRLSCAASGITFPLYAMGWYRQAPGKERELVATISGRGGSTYYADSVKGRFTISRDNAKNTVYLQMNSLKPEDTAVYYCNADFRSPYFLLSWYHSGDYWGQGTQVTGSS` , thanks.
Ans. low polyreactivity

Qu. Need polyreactivity (PSR sort gate) of `QVQLVESGGGLVQAGGSLRLSCAASGSTFGANAMGWYRQARGKEREFVAAISRSGVRTYYADSVKGRFTISRDNAKNTVYLQMNSLKPEDTAVYYCAADGYWWTYTRYDYCGQGTQVTVSS` , thanks.
Ans. low polyreactivity

Qu. Need polyreactivity (PSR sort gate) of `QVQLVESGGGLVQAGGSLRLSCAASGSIFIGYAMGWYRQAHGKERELVAAITSGGSTYADSVKGRFTISRDNAKNPVYLQMNSLKPEDSAVYYCAARFFLVTLDYWGQGTQVTVSS` , thanks.
Ans. low polyreactivity
